test target: UniProt P31645
experimental protocol: hSERT neurotransmitter uptake assay (3H-5-HT), Assay 2
Format: cell-based
Design: expressed in transfected cells; host or cells: HEK-293
measurement context: serotonin reuptake inhibition, 3H-5-HT uptake, HEK-293 hSERT cells (values without asterisk); read-out: SERT pIC50 (converted)
property measured: IC50

Some entries whose results are on file:
- compound: "CC[C@H](Oc1ccc(F)cc1Cl)[C@H]1CCNC1"
  property measured: "IC50"
  observed result: "≤ 0.01 µM"
- compound: "CC[C@H](Oc1c(F)ccc(OC)c1Cl)[C@H]1CCNC1"
  property measured: "IC50"
  observed result: "≤ 0.01 µM"

Indicate the recorded IC50 value for this compound: CCC[C@@H](Oc1ccc(Cl)cc1)[C@H]1CCNC1
≤ 0.01 µM

Indicate the recorded IC50 value for this compound: CC(C)C(Oc1cccc(Cl)c1Cl)C1CCNC1 (stereo not shown)
≤ 0.01 µM

Indicate the recorded IC50 value for this compound: CC(C)[C@@H](Oc1cccc(F)c1Cl)[C@H]1CCNC1
≤ 0.01 µM

---

test target: UniProt P31645
experimental protocol: fluorescence-based serotonin reuptake inhibition assay (Tsuruda et al. 2010; data indicated by an asterisk)
Assay type: cell-based
Parameters: expressed in transfected cells; host or cells: HEK-293
measurement context: fluorescence-based assay (values with asterisk), read-out: SERT pIC50 (converted)
property measured: IC50

Some entries whose results are on file:
- molecule: "Fc1c(Cl)ccc(O[C@@H](C2CC2)[C@H]2CCNC2)c1F"
  IC50: "≤ 10 nM"
- molecule: "CC(C)[C@@H](Oc1ccc(Cl)c(Cl)c1)[C@@H]1CCNC1"
  IC50: "≤ 10 nM"
- molecule: "CC(C)C[C@H](Oc1c(Cl)cccc1Cl)[C@@H]1CCNC1"
  IC50: "≤ 100 nM"

Indicate the recorded IC50 value for this molecule: CCC[C@H](Oc1c(F)cc(Cl)cc1Cl)[C@H]1CCNC1
≤ 10 nM

Indicate the recorded IC50 value for this molecule: CCOc1cc(Cl)ccc1O[C@@H](C1CC1)[C@H]1CCNC1
≤ 100 nM

Indicate the recorded IC50 value for this molecule: CC(C)[C@@H](Oc1cc(F)cc(Cl)c1)[C@@H]1CCNC1
≤ 100 nM

---

test target: hSERT (Homo sapiens)
Sequence (P31645 whole entry): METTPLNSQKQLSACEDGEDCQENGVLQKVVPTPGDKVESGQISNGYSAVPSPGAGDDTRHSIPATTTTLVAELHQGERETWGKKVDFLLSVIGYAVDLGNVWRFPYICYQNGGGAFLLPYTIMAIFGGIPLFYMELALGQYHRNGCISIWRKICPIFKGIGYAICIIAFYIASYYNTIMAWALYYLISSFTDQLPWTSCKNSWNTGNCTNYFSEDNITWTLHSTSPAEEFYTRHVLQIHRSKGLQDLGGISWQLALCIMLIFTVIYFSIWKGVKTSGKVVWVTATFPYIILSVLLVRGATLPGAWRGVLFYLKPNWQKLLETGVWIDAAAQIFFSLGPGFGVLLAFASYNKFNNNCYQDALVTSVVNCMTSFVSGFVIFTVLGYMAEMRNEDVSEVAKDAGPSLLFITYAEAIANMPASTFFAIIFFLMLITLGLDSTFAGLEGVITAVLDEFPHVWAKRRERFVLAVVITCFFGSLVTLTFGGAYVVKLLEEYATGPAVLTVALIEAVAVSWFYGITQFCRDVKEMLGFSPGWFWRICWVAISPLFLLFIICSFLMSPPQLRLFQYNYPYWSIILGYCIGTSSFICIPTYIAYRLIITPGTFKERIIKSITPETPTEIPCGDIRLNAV
experimental protocol: hSERT neurotransmitter uptake assay (3H-5-HT), Assay 2
Format: cell-based
Set-up: expressed in transfected cells; host or cells: HEK-293
measurement context: serotonin reuptake inhibition, 3H-5-HT uptake, HEK-293 hSERT cells (values without asterisk); read-out: SERT pIC50 (converted)
property measured: IC50

Some entries whose results are on file:
- molecule: "Fc1ccc(O[C@@H](C2CC2)[C@H]2CCNC2)cc1Cl"
  IC50: "≤ 100 nM"
- molecule: "CC(C)C(Oc1cccc(F)c1Cl)C1CCNC1 (centres unmarked)"
  IC50: "≤ 100 nM"
- molecule: "CC[C@H](Oc1cccc2ccccc12)[C@H]1CCNC1"
  IC50: "≤ 10 nM"
- molecule: "CC(C)[C@H](Oc1cccc(Cl)c1Cl)[C@H]1CCNC1"
  IC50: "≤ 10 nM"

Next item in the queue.
Indicate the recorded IC50 value for this molecule: CC(C)C(Oc1ccc(Cl)cc1)C1CCNC1 (centres unmarked)
≤ 10 nM

---

test target: UniProtKB P31645
experimental protocol: hSERT neurotransmitter uptake assay (3H-5-HT), Assay 2
Type: cell-based
Set-up: expressed in transfected cells; host or cells: HEK-293
measurement context: serotonin reuptake inhibition, 3H-5-HT uptake, HEK-293 hSERT cells (values without asterisk); read-out: SERT pIC50 (converted)
property measured: IC50

- molecule: "Cc1ccc(O[C@H](C2CC2)[C@H]2CCNC2)c(F)c1F"
  observed result: "≤ 10 nM"
- molecule: "Cc1cc(Cl)cc(Cl)c1O[C@@H](C1CC1)[C@H]1CCNC1"
  observed result: "≤ 10 nM"
- molecule: "Fc1cc(Cl)cc(O[C@H](C2CC2)[C@H]2CCNC2)c1"
  observed result: "≤ 100 nM"
- molecule: "FC(F)(F)c1c(Cl)cccc1O[C@@H](C1CC1)[C@H]1CCNC1"
  observed result: "≤ 10 nM"
- molecule: "Cc1cc(Cl)ccc1O[C@H](CC(C)C)[C@H]1CCNC1"
  observed result: "≤ 10 nM"

Indicate the recorded IC50 value for this molecule: CSc1cccc(O[C@@H](C2CC2)[C@H]2CCNC2)c1
≤ 100 nM

Indicate the recorded IC50 value for this molecule: CC[C@H](Oc1ccc(Cl)cc1F)[C@H]1CCNC1
≤ 100 nM

Indicate the recorded IC50 value for this molecule: CC[C@@H](Oc1cccc(Cl)c1Cl)[C@@H]1CCNC1
≤ 10 nM

Indicate the recorded IC50 value for this molecule: CC(C)CC(Oc1c(Cl)ccc(Cl)c1F)C1CCNC1 (centres unmarked)
≤ 10 nM

Indicate the recorded IC50 value for this molecule: CCCC[C@@H](Oc1cc(Cl)cc(Cl)c1)[C@H]1CCNC1
≤ 10 nM

Indicate the recorded IC50 value for this molecule: CC(C)C[C@@H](Oc1ccc(Cl)cc1)[C@H]1CCNC1
≤ 10 nM

Indicate the recorded IC50 value for this molecule: CC(C)CC(Oc1c(F)ccc(F)c1Cl)C1CCNC1 (centres unmarked)
≤ 10 nM

Indicate the recorded IC50 value for this molecule: CCC[C@@H](Oc1cc(Cl)cc(Cl)c1)[C@H]1CCNC1
≤ 10 nM

Indicate the recorded IC50 value for this molecule: CCC[C@H](Oc1ccc(Cl)c(Cl)c1)[C@H]1CCNC1
≤ 10 nM

Indicate the recorded IC50 value for this molecule: CC[C@@H](Oc1c(Cl)ccc(Cl)c1Cl)[C@H]1CCNC1
≤ 100 nM

---

Target or system hNET (Homo sapiens, UniProt P23975): recorded Ki listed per item.

Report Ki from hNET (Homo sapiens, UniProt P23975) testing of CCC[C@H](Oc1ccc(C)cc1Cl)[C@@H]1CCNC1
≤ 100 nM

Report Ki from hNET (Homo sapiens, UniProt P23975) testing of CC(C)[C@@H](Oc1c(Cl)cccc1Cl)[C@H]1CCNC1
≤ 100 nM

Report Ki from hNET (Homo sapiens, UniProt P23975) testing of O=[N+]([O-])c1ccccc1O[C@H](C1CCCCC1)[C@H]1CCNC1
≤ 10 nM

Report Ki from hNET (Homo sapiens, UniProt P23975) testing of Fc1cccc(O[C@H](C2CC2)[C@H]2CCNC2)c1Cl
≤ 10 nM

Report Ki from hNET (Homo sapiens, UniProt P23975) testing of CCC[C@@H](Oc1cccc(Cl)c1Cl)[C@H]1CCNC1
≤ 10 nM

Report Ki from hNET (Homo sapiens, UniProt P23975) testing of CC(C)C[C@H](Oc1c(F)cccc1Cl)[C@H]1CCNC1
≤ 10 nM

Report Ki from hNET (Homo sapiens, UniProt P23975) testing of CC[C@@H](Oc1ccc(Cl)cc1Cl)[C@@H]1CCNC1
≤ 100 nM

Report Ki from hNET (Homo sapiens, UniProt P23975) testing of CC(C)C(Oc1ccc(Cl)cc1)C1CCNC1 (stereo not drawn)
≤ 10 nM

Report Ki from hNET (Homo sapiens, UniProt P23975) testing of COc1c(O[C@H](C2CC2)[C@H]2CCNC2)ccc(Cl)c1Cl
≤ 316 nM

---

pKi: −log10 of the molar value.
Target or system hSERT (Homo sapiens, UniProt P31645): recorded pKi listed per item.

Indicate the recorded pKi value for this compound: CC(C)[C@@H](Oc1ccc(Cl)cc1)[C@@H]1CCNC1
≥ 8.00

Indicate the recorded pKi value for this compound: CC(C)C[C@@H](Oc1ccc(C(F)(F)F)cc1)[C@H]1CCNC1
≥ 8.00

Indicate the recorded pKi value for this compound: CCC[C@@H](Oc1c(Cl)cccc1Cl)[C@H]1CCNC1
≥ 7.00

---

Target or system UniProt P31645: recorded Ki listed per item.

Some entries whose results are on file:
- compound: "CC(C)C(Oc1ccc(F)cc1)C1CCNC1 (stereo not drawn)"
  observed result: "≤ 100 nM"
- compound: "CCC[C@@H](Oc1ccccc1Cl)[C@H]1CCNC1"
  observed result: "≤ 10 nM"

Next item in the queue.
Report Ki from UniProt P31645 testing of CC(C)C[C@H](Oc1cccc(F)c1Cl)[C@@H]1CCNC1
≤ 10 nM

---

test target: UniProt P31645
pKi: −log10 of the molar value.
property measured: pKi

- compound: "CC[C@H](Oc1c(F)cccc1Cl)[C@H]1CCNC1 [Example 2-25]"
  test target: "UniProt P31645"
  pKi: "≥ 8.00"
- compound: "CC(C)C[C@H](Oc1cccc(F)c1)[C@H]1CCNC1 [Example 10-5]"
  test target: "UniProt P31645"
  pKi: "≥ 8.00"
- compound: "CC[C@@H](Oc1cccc2ccccc12)[C@H]1CCNC1 [Example 14-1]"
  test target: "UniProt P31645"
  pKi: "≥ 8.00"
- compound: "CC[C@@H](Oc1c(F)cccc1Cl)[C@H]1CCNC1 [Example 2-26]"
  test target: "UniProt P31645"
  pKi: "≥ 7.00"
- compound: "Clc1ccc(O[C@H](C2CC2)[C@H]2CCNC2)c(Cl)c1 [Example 16-20]"
  test target: "UniProt P31645"
  pKi: "≥ 8.00"
- compound: "CC[C@@H](Oc1c(Cl)ccc(C)c1F)[C@H]1CCNC1 [Example 2-54]"
  test target: "UniProt P31645"
  pKi: "≥ 7.00"
- compound: "CC(C)C(Oc1ccc(C(F)(F)F)cc1)C1CCNC1 (centres unmarked) [Example 6-77]"
  test target: "UniProt P31645"
  pKi: "≥ 8.00"
- compound: "CC[C@@H](Oc1ccc(Cl)cc1Cl)[C@@H]1CCNC1 [Example 2-33]"
  test target: "UniProt P31645"
  pKi: "≥ 8.00"

Report pKi from UniProt P31645 testing of Cc1ccccc1O[C@@H](C1CC1)[C@H]1CCNC1 [Example 16-3]
≥ 7.00

Report pKi from UniProt P31645 testing of CC(C)C[C@H](Oc1c(F)c(F)cc(F)c1Cl)[C@H]1CCNC1 [Example 10-86]
≥ 8.00

Report pKi from UniProt P31645 testing of CCC[C@H](Oc1ccc(Cl)cc1)[C@H]1CCNC1 [Example 4-1]
≥ 8.00

Report pKi from UniProt P31645 testing of CCCC[C@@H](Oc1cc(Cl)cc(Cl)c1)[C@H]1CCNC1 [Example 8-13]
≥ 8.00

Report pKi from UniProt P31645 testing of CC(C)[C@H](Oc1c(Cl)ccc(Cl)c1Cl)[C@H]1CCNC1 [Example 6-35]
≥ 8.00

Report pKi from UniProt P31645 testing of Clc1ccc(O[C@@H](C2CC2)[C@H]2CCNC2)cc1Cl [Example 16-87]
≥ 8.00

Report pKi from UniProt P31645 testing of Fc1ccc(O[C@H](C2CC2)[C@@H]2CCNC2)cc1Cl [Example 16-90]
≥ 8.00
